target: wild-type EGFR expressed on cells (human), P00533; assay: flow cytometry, F98-EGFRwt cells; settings: remark: other sources report otherwise
readout-name: MFI
Lab note: jot the number down without any unit.

Briefly, MFI measured for 12H6 (antibody, V domains shown) VH: QVTLKESGPVLVKPTETLTLTCTVSGFSLSNARMGVSWIRQPPGKALEWLAHIFSTDEKSIRRSLRSRLTLSKDTSKSQVVLTMTNMDPVDTATYYCARDSSNYEGYFDYWGQGTLVTVSS VL: EVVMTQSPATLSVSPGERATLSCRASQGVSSNFAWYQQRPGQSPRLLLYGASTRATGVPGRFSGSGSGTENILTISSLQSEDFAIYFCQQYKDWPFTFGPGSKVDIK : 188

Value of MFI reported for the binder 49B11 (antibody, V domains shown) VH: QVTLKESGPVLVKPTETLTLTCTVSGFSLSNVRMGVSWIRQPPGKALEWFAHIFSSDEKSIRRSLRSRLTLSKDTSKSQVVLTMTNMDPVDTATYYCARDSSNYEGYFDYWGQGTLVTVSS VL: EMEVTQSPATLSVSPGERATLSCRASQNIGSDLAWYQQQSGQAPRLLISGASTRATGVPTRFSGSGSGTDFTLTITSLQSEDFAVYYCQQYNDWPFTFGPGTKVDIK is 185

Per the record, 26B9 (antibody, V domains shown) VH: EVQLVESWGVLVKPGGSLRLSCAASGFIFNNAWMSWVRQAPGKGLEWIGRIKSKSDGGTTDYAAPVKDRFTISRDDSKDTLYLQMNGLKTEDTAVYFCTTAPGGPFDYWGQGTLVTVSS VL: DIVLTQSPLSLPVTPGEPASISCRSSQSLLHRDGFNYLDWFLQKPGQSPQLLIYLASSRASGVPDRFSGSDSGTDFTLKISRVEAEDVGVYYCMQALQTPITFGQGTRLEIK has MFI of 298

The recorded MFI for entry 14C11 (antibody, V domains shown) VH: QVTLKESGPVLVKPTETLTLTCTVSGFSLNNARMGVSWIRQPPGKALEWFAHIFSTDEKSFRTSLRSRLTLSKDTSKSQVVLTMTNMDPVDTATYYCARDSSNYEGYFDYWGQGILVTVSS VL: EIVMTQSPATLSVSPGERATLSCRASQSVSNNLAWYQQKPGQAPRLLIYGASTRATGVPARFSGSDSGTEFSLTISSLQSEDFAVYFCQQYKDWPFTFGPGTKVEIK equals 185

// sample 42G9 (antibody, V domains shown) VH: QVTLKESGPVLLKPTETLTLTCTVSGFSLSNPRMGVSWIRQPPGKALEWFAHIFSTDEKSLKLSLRSRLTLSKDTSKSQVVLTMTNMAPVDSATYYCARDSSNYEGYFDFWGQGTLVTVSS VL: EVVLTQSPATLSVSPGERATLSCRASQSVRSNLAWYQQKSGQAPRLLIYGSTIRATGVPARFSGSGSGTEFTLTISSLQSEDFAVYYCQQYSDWPFTFGPGTKVDIK , its MFI was 185

// sample 46E10 (antibody, V domains shown) VH: QVTLKESGPVLVKPTETLTLTCTVSGFSLSNARMGVSWIRQPPGKALEWLAHIFSTDEKSIRRSLRSRLTLSKDTSKSQVVLIMTNMDPVDTATYYCARDSSNYEGYFDYWGQGTLVTVSS VL: EVVMTQSPPNLSVSPGERATLSCRASQSVTSNFAWYQQRPGQSPRLLLYGASTRATGVPGRFSGSGSGTENILTISSLQSEDFAVYFCQQYKDWPFTFGPGSKVDIK , its MFI was 187

Entry 20G5 (antibody, V domains shown) VH: EVQLVESGGDLVKPGGSLRLSCAASGFTFTNAWMSWVRQAPGKGLEWVGRIKSKIDGGTTDYAAPVKGRFIISRDDSKNTLSLQMNSLKTEDTAMYYCTTAPGGPFDYWGQGSLVTVSS VL: DIVLTQSPLSLPVTPGEPASISCRSSQSLLYSDRRNYLDWFLQKPGQSPHLLIYLGSYRASGVPDRFSGSGSGTDFTLKISRVEAEDVGVYYCMQALQIPITFGQGTRLEIK — recorded MFI = 1070

Looking up 20B9 (antibody, V domains shown) VH: QVTLKESGPVLVKPTETLTLTCTVSGFSLSNARMGVSWIRQPPGKALEWLGHIFSTDEKSYSTSLRGRITISKDTSRGLVVLTLTNMDPVDTATYYCARDSSNYEGYFDFWGPGFLVTVSS VL: EIVMTQSPATLSVSPGERATLSCRVSQSIGANLAWYQQKFGQAPRLLIYGASTRATGIPVRFSGGGSGTEFTLTISSLQSEDFAIYSCQQYIYWPFTFGPGTTVDIK , I see its MFI listed as 189

The recorded MFI for entry 20E12 (antibody, V domains shown) VH: EVNLVESGGGLVKPGGSLRLSCEASGFTFSYAWMSWVRQAPGKGLEWVGRIKSIADGGATDYAAPVRNRFTISRDDSRNTLYLEMHSLKTEDTAVYYCTTIPGNDAFDMWGQGTMVTVSS VL: DIVLTQSPLSLSVTPGEPASISCRSSQSLLYSNGKNYLDWFLHKPGQSPQLLIYLGSNRASGVPDRFSGSGSGIDFILKISRVEAEDVGVYYCMQAQQTPITFGQGTRLEIK equals 348

Lookup result for 30D8 (antibody, V domains shown) VH: EVQLVESGGGLVKPGGSLRLSCEASGFTFSDAWMSWVRQAPGKGLEWVGRIKSKTDGGTTDYVVPLNGRFIISRDDSRNTLYLQLNNLKTEDTAVYYCTTVPGSYGYWGQGTLVTVSS VL: DIVMTQSPLSLPVTPGEPASISCRSSQSLLHNKRNNYLDWFLQKPGQSPQLLIYLASNRASGVPDRFSGGGSGTDFTLKISRVEAEDVGVYYCMQAQQTPITFGQGTRLEIK ; measured MFI: 280
